Source: ChEMBL document CHEMBL5724914

- PROTOCOL_DETAILS: The drug is tested on Z-016 corresponding to mouse gut metagenome with ENA study accession number: PRJEB37062 and ENA sample accession number: ERS12561815 for biotransformation under anaerobic condition. The drug concentrations were measured over 9 timepoints collected between 0 and 24 hours of incubation by liquid-chromatography-coupled mass spectrometry (LC–MS); further: call rule not given here
- STUDY_CONDITIONS: 2 µM
Where a SMILES comes first, the peptide text is derived from it. [ ]: non-standard residue; d: D form. pGlu = O=C1CC[C@@H](C(=O)O)N1; Thz = O=C(O)[C@@H]1CSCN1
MEASUREMENT_TYPE: Bacterial Biotransformation

Please review the entries below; each comes with its answer.
COMPOUND: COc1ccc2[nH]c([S+]([O-])Cc3ncc(C)c(OC)c3C)nc2c1 (configuration not stated) [OMEPRAZOLE]
MEASUREMENT_TYPE: Bacterial Biotransformation
OBSERVED_VALUE: Compound metabolized

COMPOUND: O=C1NCC2(CCN(CCc3ccccc3)CC2)O1 [FENSPIRIDE]
MEASUREMENT_TYPE: Bacterial Biotransformation
OBSERVED_VALUE: Compound NOT metabolized

COMPOUND: Cc1nc2n(c(=O)c1CCN1CCC(c3noc4cc(F)ccc34)CC1)CCCC2 [RISPERIDONE]
MEASUREMENT_TYPE: Bacterial Biotransformation
OBSERVED_VALUE: Compound metabolized

COMPOUND: O=C1CC[C@@H](C(=O)N2CSC[C@H]2C(=O)O)N1 [PIDOTIMOD] ([pGlu]-[Thz]-OH)
MEASUREMENT_TYPE: Bacterial Biotransformation
OBSERVED_VALUE: Compound NOT metabolized

COMPOUND: CCN(CC)C(C)CN1c2ccccc2Sc2ccccc21 (configuration not stated) [ETHOPROPAZINE]
MEASUREMENT_TYPE: Bacterial Biotransformation
OBSERVED_VALUE: Compound NOT metabolized

COMPOUND: CCN(CC)CCNC(=O)c1cc(Cl)c(N)cc1OC [METOCLOPRAMIDE]
MEASUREMENT_TYPE: Bacterial Biotransformation
OBSERVED_VALUE: Compound NOT metabolized

Return reported Bacterial Biotransformation. Input compound: CCN(CC)C(=O)/C(C#N)=C/c1cc(O)c(O)c([N+](=O)[O-])c1 [ENTACAPONE]
Compound metabolized

Return reported Bacterial Biotransformation. Input compound: Cc1ccc(S(=O)(=O)NC(=O)NN2CC3CCCC3C2)cc1 (configuration not stated) [GLICLAZIDE]
Compound metabolized

* * *

- STUDY_CONDITIONS: human gut metagenome, 24 h, 2 µM
MEASUREMENT_TYPE: Bacterial Biotransformation

MOLECULE: O=C1[C@H](CC[C@H](O)c2ccc(F)cc2)[C@@H](c2ccc(O)cc2)N1c1ccc(F)cc1 [EZETIMIBE]
Bacterial Biotransformation: Compound metabolized
//
MOLECULE: COc1ccc2[nH]c([S+]([O-])Cc3ncc(C)c(OC)c3C)nc2n1 (configuration not stated) [TENATOPRAZOLE]
Bacterial Biotransformation: Compound NOT metabolized
//
MOLECULE: C[C@@H]1CC[C@H]2[C@@H](C)C(=O)O[C@@H]3O[C@@]4(C)CC[C@@H]1[C@]32OO4 [ARTEMISININ]
Bacterial Biotransformation: Compound metabolized
//
MOLECULE: Br.CN(C)CCCC1(c2ccc(F)cc2)OCc2cc(C#N)ccc21 (configuration not stated) [CITALOPRAM HYDROBROMIDE]
Bacterial Biotransformation: Compound metabolized
//
MOLECULE: CN1CCN(CC/C=C2/c3ccccc3Sc3ccc(S(=O)(=O)N(C)C)cc32)CC1 [THIOTHIXENE]
Bacterial Biotransformation: Compound metabolized

Return reported Bacterial Biotransformation. Input molecule: COc1ccc2[nH]c([S+]([O-])Cc3ncc(C)c(OC)c3C)nc2c1 (configuration not stated) [OMEPRAZOLE]
Compound metabolized

Return reported Bacterial Biotransformation. Input molecule: OCCOCCN1CCN(C2=Nc3ccccc3Sc3ccccc32)CC1 [QUETIAPINE]
Compound metabolized

Return reported Bacterial Biotransformation. Input molecule: CC(=O)O[C@]1(C(C)=O)CC[C@H]2[C@@H]3C=C(Cl)C4=CC(=O)[C@@H]5C[C@@H]5[C@]4(C)[C@H]3CC[C@@]21C [CYPROTERONE ACETATE]
Compound metabolized

Return reported Bacterial Biotransformation. Input molecule: O=c1[nH]c2ccccc2n1CCCN1CCC(n2c(=O)[nH]c3cc(Cl)ccc32)CC1 [DOMPERIDONE]
Compound NOT metabolized

Return reported Bacterial Biotransformation. Input molecule: CCC1(c2ccc(N)cc2)CCC(=O)NC1=O (configuration not stated) [AMINOGLUTETHIMIDE]
Compound NOT metabolized
